Values from patent US11304929B2

target: UniProtKB O43175; assay: 3-Phosphoglycerate Dehydrogenase (PHGDH) Fluorescence Intensity Assay, run at two NAD/3-PG ratios: PHGDH_HIGH_NAD/3-PG (250 μM NAD/500 μM 3-PG) and PHGDH_500_NAD/3-PG (500 μM NAD/500 μM 3-PG); type: biochemical; conditions: 250 μM NAD/500 μM 3-PG; read-out: IC50 (PHGDH_HIGH_NAD/3-PG)
pIC50: −log10 of the molar value.
Respond with true (1) for pIC50 values of 7 and above, false (0) for values below.

# molecule, target, class name
records = [
    ("COC(=O)C[S+]([O-])c1ccc([C@@H](CO)NC(=O)c2cc3c(Cl)cc(C)cc3n2C)cc1 (some centres unmarked)", "UniProtKB O43175", "false (0)"),
    ("CC(=O)OCOC(=O)CS(=O)(=O)c1ccc([C@@H](C)NC(=O)c2cc(-c3ccccc3)nn2C)cc1", "UniProtKB O43175", "false (0)"),
    ("CCC(CC)(C(=O)O)S(=O)(=O)c1ccc([C@@H](C)NC(=O)c2cc3c(Cl)cc(C)cc3n2C)cc1", "UniProtKB O43175", "true (1)"),
    ("Cc1cc2c(cc(C(=O)N[C@H](C)c3ccc(S(=O)(=O)CC(=O)OC(C)C)cc3)n2C)c(Cl)c1Cl", "UniProtKB O43175", "false (0)"),
]

----------
target: PHGDH (Homo sapiens (Human), UniProt O43175); experiment: 3-Phosphoglycerate Dehydrogenase (PHGDH) Fluorescence Intensity Assay, run at two NAD/3-PG ratios: PHGDH_HIGH_NAD/3-PG (250 μM NAD/500 μM 3-PG) and PHGDH_500_NAD/3-PG (500 μM NAD/500 μM 3-PG); type: biochemical; settings: 250 μM NAD/500 μM 3-PG; read-out: IC50 (PHGDH_HIGH_NAD/3-PG)
Sequence (O43175 2-533 limits assumed): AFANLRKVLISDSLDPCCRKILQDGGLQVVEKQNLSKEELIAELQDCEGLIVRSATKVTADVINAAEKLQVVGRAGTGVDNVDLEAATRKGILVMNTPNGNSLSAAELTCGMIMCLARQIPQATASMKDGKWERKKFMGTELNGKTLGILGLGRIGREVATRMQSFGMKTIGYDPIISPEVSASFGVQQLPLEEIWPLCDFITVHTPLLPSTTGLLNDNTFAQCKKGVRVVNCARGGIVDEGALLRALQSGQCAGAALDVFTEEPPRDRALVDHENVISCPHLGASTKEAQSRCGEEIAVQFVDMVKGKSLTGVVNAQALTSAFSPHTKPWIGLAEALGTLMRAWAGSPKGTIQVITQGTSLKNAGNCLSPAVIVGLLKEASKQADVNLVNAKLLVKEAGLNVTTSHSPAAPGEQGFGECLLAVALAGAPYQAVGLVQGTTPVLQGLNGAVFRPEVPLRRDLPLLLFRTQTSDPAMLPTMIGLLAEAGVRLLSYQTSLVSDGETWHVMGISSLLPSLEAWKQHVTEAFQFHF
pIC50: −log10 of the molar value.
# maps each entry to its pIC50

# item smiles, pIC50
rows = [
    ("Cc1cc(Cl)c2cc(C(=O)NCc3ccc(S(=O)(=O)CC(=O)OC(C)C)cc3)n(C)c2c1", "< 4.70"),
    ("COC(=O)CS(=O)(=O)c1ccc([C@H](C)NC(=O)c2cc(-c3ccccc3)nn2C)cn1", "< 4.00"),
    ("CCOC(=O)C(C)(C)S(=O)(=O)c1ccc([C@@H](C)NC(=O)c2cc3c(Cl)c(Cl)c(C)nc3n2C)cc1", "< 4.00"),
]
